# System: carbapenemase producing K. pneumoniae
# Assay protocol: MIC by broth micro-dilution (CLSI), carbapenemase producing K. pneumoniae
# Format: cell-based, Klebsiella pneumoniae
# Experimental conditions: Klebsiella pneumoniae, ATCCBAA1705, KPC-2 K. pneumoniae ATCC BAA-1705; read-out: MIC
compounds and their reported MIC
Use µg/mL as the unit, but write only the number.

Measured MIC, COC(=O)N[C@H]1CCN(C(=O)[C@@H]2C[C@H](SC3=C(C(=O)O)N4C(=O)[C@H]([C@@H](C)NC(=O)C(F)F)[C@H]4[C@H]3C)CN2)C1 : 4

Measured MIC, C[C@@H](NC(=O)Cn1cnnn1)[C@H]1C(=O)N2C(C(=O)O)=C(S[C@@H]3CN[C@H](C(=O)N4CCC(N)(CC#N)CC4)C3)[C@H](C)[C@H]12 : 4

Measured MIC, C[C@@H](NC(=O)Cn1cnnn1)[C@H]1C(=O)N2C(C(=O)O)=C(S[C@@H]3CN[C@H](C(=O)N4CC[C@H](N)C4)C3)[C@H](C)[C@H]12 : 4

* * *

# Tested on: carbapenemase producing K. pneumoniae
# Assay protocol: MIC by broth micro-dilution (CLSI), carbapenemase producing K. pneumoniae
# Type: cell-based, Klebsiella pneumoniae
# Experimental conditions: Klebsiella pneumoniae, ATCCBAA1705, KPC-2 K. pneumoniae ATCC BAA-1705; read-out: MIC
compounds and their reported MIC
Use µg/mL as the unit, but write only the number.

Item: CNCC(=O)N[C@H](C)[C@H]1C(=O)N2C(C(=O)O)=C(S[C@@H]3CN[C@H](C(=O)N4CC[C@@H](NC)C4)C3)[C@H](C)[C@H]12 | System: carbapenemase producing K. pneumoniae | MIC: 8

Item: C[C@@H](NC(=O)C(F)F)[C@H]1C(=O)N2C(C(=O)O)=C(S[C@@H]3CN[C@H](C(=O)N[C@@H]4CCNC4)C3)[C@H](C)[C@H]12 | System: carbapenemase producing K. pneumoniae | MIC: 4

Item: C[C@@H](NS(=O)(=O)C(F)(F)F)[C@H]1C(=O)N2C(C(=O)O)=C(S[C@@H]3CN[C@H](C(=O)N4CCN(C)CC4)C3)[C@H](C)[C@H]12 | System: carbapenemase producing K. pneumoniae | MIC: 8

* * *

# System: carbapenemase producing K. pneumoniae
# Assay protocol: MIC by broth micro-dilution (CLSI), carbapenemase producing K. pneumoniae
# Type: cell-based, Klebsiella pneumoniae
# Experimental conditions: Klebsiella pneumoniae, ATCCBAA1705, KPC-2 K. pneumoniae ATCC BAA-1705; read-out: MIC
MIC vs 4 µg/mL: less than gives true (1); not less than gives false (0).

{"Compound": "C[C@H](N)C(=O)N[C@H](C)[C@H]1C(=O)N2C(C(=O)O)=C(S[C@@H]3CN[C@H](C(=O)N(C)C)C3)[C@H](C)[C@H]12 [Example 68]", "Class": "false (0)"}
{"Compound": "C[C@@H](NCC(=O)O)[C@H]1C(=O)N2C(C(=O)O)=C(S[C@@H]3CN[C@H](C(=O)N(C)C)C3)[C@H](C)[C@H]12 [Example 99]", "Class": "false (0)"}

In the record for CNCCN(CC#N)C(=O)[C@@H]1C[C@H](SC2=C(C(=O)O)N3C(=O)[C@H]([C@@H](C)NC(=O)C(F)F)[C@H]3[C@H]2C)CN1 [Example 171] , is MIC less than 4 µg/mL?
false (0)

In the record for C[C@@H](NC(=O)C(F)F)[C@H]1C(=O)N2C(C(=O)O)=C(S[C@@H]3CN[C@H](C(=O)N4CCc5nc(N)sc5C4)C3)[C@H](C)[C@H]12 [Example 235] , is MIC less than 4 µg/mL?
false (0)

In the record for C[C@@H](NC(=O)CNC1CC1)[C@H]1C(=O)N2C(C(=O)O)=C(S[C@@H]3CN[C@H](C(=O)N4CC[C@@H](N)C4)C3)[C@H](C)[C@H]12 [Example 197] , is MIC less than 4 µg/mL?
false (0)

In the record for C[C@@H](NC(=O)C(F)(F)F)[C@H]1C(=O)N2C(C(=O)O)=C(S[C@@H]3CN[C@H](C(=O)N(C)C)C3)[C@H](C)[C@H]12 [Example 64] , is MIC less than 4 µg/mL?
false (0)

In the record for C[C@@H](NC(=O)Cn1cnnn1)[C@H]1C(=O)N2C(C(=O)O)=C(S[C@@H]3CN[C@H](C(=O)N4C[C@H]5C[C@H](N)C[C@@]5(CO)C4)C3)[C@H](C)[C@H]12 [Example 526] , is MIC less than 4 µg/mL?
true (1)

In the record for C[C@@H](NC(=O)Cn1nnnc1C(C)(C)C)[C@H]1C(=O)N2C(C(=O)O)=C(S[C@@H]3CN[C@H](C(=O)N(C)C)C3)[C@H](C)[C@H]12 [Example 356] , is MIC less than 4 µg/mL?
false (0)

In the record for C[C@@H](NS(=O)(=O)C(F)(F)F)[C@H]1C(=O)N2C(C(=O)O)=C(S[C@@H]3CN[C@H](CNS(N)(=O)=O)C3)[C@H](C)[C@H]12 [Example 19] , is MIC less than 4 µg/mL?
false (0)

In the record for C[C@@H](NC(=O)CSC(F)F)[C@H]1C(=O)N2C(C(=O)O)=C(S[C@@H]3CN[C@H](C(=O)N4CC[C@@H](N)C4)C3)[C@H](C)[C@H]12 [Example 507] , is MIC less than 4 µg/mL?
false (0)

In the record for C[C@@H](NC(=O)OCC(F)(F)F)[C@H]1C(=O)N2C(C(=O)O)=C(S[C@@H]3CN[C@H](CNS(N)(=O)=O)C3)[C@H](C)[C@H]12 [Example 52] , is MIC less than 4 µg/mL?
false (0)

In the record for C[C@H]1C(S[C@@H]2CN[C@H](C(=O)N(CCO)CCO)C2)=C(C(=O)O)N2C(=O)[C@H]([C@@H](C)NC(=O)C(F)F)C12 (stereo partly drawn) [Example 140] , is MIC less than 4 µg/mL?
true (1)

In the record for C[C@@H](NC(=O)[C@@H](N)Cc1ccccc1)[C@H]1C(=O)N2C(C(=O)O)=C(S[C@@H]3CN[C@H](C(=O)N(C)C)C3)[C@H](C)[C@H]12 [Example 71] , is MIC less than 4 µg/mL?
false (0)
